The origin of these recorded values is patent US20240091200A1.

- METHOD_NOTES: Plasma pharmacokinetics after an oral dose of Example 2 in SD rats
- Format: in vivo, Sprague Dawley rats
- ASSAY_CONTEXT: male, Sprague Dawley, rat, plasma, po, 5 mg/kg, Example 68 in plasma, PO dose of Example 2 5 mg/kg, individual rats, read-out: Tmax
ATTRIBUTE_MEASURED: Tmax (min)
Kindly answer with a numeric value in min, unit omitted.

Input NC(=O)c1ccc(-c2ccc(-c3nn[nH]c3C(=O)O)cc2)cc1 . Output Tmax: 30

###

- METHOD_NOTES: Plasma pharmacokinetics of Example 68 after IV infusion or PO dose in SD rats
- Assay type: in vivo
- ASSAY_CONTEXT: Sprague-Dawley (SD), rat, plasma, iv, 1 mg/kg, 30-minute IV infusion 1 mg/kg, mean n=3
ATTRIBUTE_MEASURED: AUC(0-inf) (µM·h)
The response must be a number in µM·h with no trailing unit.

Sample NC(=O)c1ccc(-c2ccc(-c3nn[nH]c3C(=O)O)cc2)cc1 ; AUC(0-inf) observed: 3.42

###

- METHOD_NOTES: Plasma pharmacokinetics of Example 68 after IV infusion or PO dose in SD rats
- Format: in vivo
- ASSAY_CONTEXT: Sprague-Dawley (SD), rat, plasma, iv, 1 mg/kg, 30-minute IV infusion 1 mg/kg, individual rats, read-out: Vss (volume of distribution)
ATTRIBUTE_MEASURED: Vd (L/kg)
Write down the numeric answer in L/kg and omit the unit.

Looking up NC(=O)c1ccc(-c2ccc(-c3nn[nH]c3C(=O)O)cc2)cc1 , I see its Vd listed as 0.41

###

- METHOD_NOTES: Plasma pharmacokinetics of Example 68 after IV infusion or PO dose in SD rats
- Type: in vivo
- ASSAY_CONTEXT: Sprague-Dawley (SD), rat, plasma, po, 5 mg/kg, PO dose 5 mg/kg, mean n=3
ATTRIBUTE_MEASURED: AUC(0-t) (µM·h)
Answer in µM·h, number only, no unit symbol.

Per the records, this molecule ( NC(=O)c1ccc(-c2ccc(-c3nn[nH]c3C(=O)O)cc2)cc1 [Example 68] ) has AUC(0-t) equal to 0.386

###

- METHOD_NOTES: Plasma pharmacokinetics after an oral dose of Example 2 in SD rats
- Assay type: in vivo, Sprague Dawley rats
- ASSAY_CONTEXT: male, Sprague Dawley, rat, plasma, po, 5 mg/kg, Example 2 in plasma, PO Example 2 5 mg/kg, individual rats
ATTRIBUTE_MEASURED: AUC(0-inf) (µM·h)
Write down the numeric answer in µM·h and omit the unit.

For reference, reported AUC(0-inf) for CCOC(=O)c1[nH]nnc1-c1ccc(-c2ccc(C(N)=O)cc2)cc1 stands at 1.34

###

- METHOD_NOTES: Plasma pharmacokinetics of Example 68 after IV infusion or PO dose in SD rats
- Format: in vivo
- ASSAY_CONTEXT: Sprague-Dawley (SD), rat, plasma, po, 5 mg/kg, PO dose 5 mg/kg, mean n=3, read-out: Tmax
ATTRIBUTE_MEASURED: Tmax (min)
Record the value in min, omitting the unit from your answer.

Entry NC(=O)c1ccc(-c2ccc(-c3nn[nH]c3C(=O)O)cc2)cc1 ; Tmax = 49.8

###

- METHOD_NOTES: Plasma pharmacokinetics of Example 68 after IV infusion or PO dose in SD rats
- Type: in vivo
- ASSAY_CONTEXT: Sprague-Dawley (SD), rat, plasma, iv, 1 mg/kg, 30-minute IV infusion 1 mg/kg, mean n=3, read-out: MRT (mean residence time)
ATTRIBUTE_MEASURED: MRT (min)
Lab book: enter the figure in min, no units written.

Sure, the documented MRT for NC(=O)c1ccc(-c2ccc(-c3nn[nH]c3C(=O)O)cc2)cc1 [Example 68] is 28.2

###

- METHOD_NOTES: Plasma pharmacokinetics of Example 68 after IV infusion or PO dose in SD rats
- Assay type: in vivo
- ASSAY_CONTEXT: Sprague-Dawley (SD), rat, plasma, iv, 1 mg/kg, 30-minute IV infusion 1 mg/kg, individual rats, read-out: CL (apparent systemic clearance) (converted)
ATTRIBUTE_MEASURED: clearance (mL/min/kg)
Answer format: numeric, mL/min/kg implied, no suffix.

Entry NC(=O)c1ccc(-c2ccc(-c3nn[nH]c3C(=O)O)cc2)cc1 , clearance reported as 14.5

###

- METHOD_NOTES: Plasma pharmacokinetics of Example 68 after IV infusion or PO dose in SD rats
- Type: in vivo
- ASSAY_CONTEXT: Sprague-Dawley (SD), rat, plasma, iv, 1 mg/kg, 30-minute IV infusion 1 mg/kg, mean n=3, read-out: Vss (volume of distribution)
ATTRIBUTE_MEASURED: Vd (L/kg)
Report only the number, with the unit L/kg understood.

In plain terms, NC(=O)c1ccc(-c2ccc(-c3nn[nH]c3C(=O)O)cc2)cc1 has a documented Vd of 0.44

###

- METHOD_NOTES: Plasma pharmacokinetics of Example 68 after IV infusion or PO dose in SD rats
- Assay type: in vivo
- ASSAY_CONTEXT: Sprague-Dawley (SD), rat, plasma, iv, 1 mg/kg, 30-minute IV infusion 1 mg/kg, individual rats
ATTRIBUTE_MEASURED: Cmax

Measured Cmax, NC(=O)c1ccc(-c2ccc(-c3nn[nH]c3C(=O)O)cc2)cc1 [Example 68] : 4.94 µM

###

- METHOD_NOTES: Plasma pharmacokinetics after an oral dose of Example 2 in SD rats
- Type: in vivo, Sprague Dawley rats
- ASSAY_CONTEXT: male, Sprague Dawley, rat, plasma, po, 5 mg/kg, Example 2 in plasma, PO Example 2 5 mg/kg, individual rats, read-out: AUC0-24 h
ATTRIBUTE_MEASURED: AUC(0-t) (µM·h)
Give a bare numeral; the unit µM·h is implied.

The measured AUC(0-t) associated with CCOC(=O)c1[nH]nnc1-c1ccc(-c2ccc(C(N)=O)cc2)cc1 reads 1.27

###

- METHOD_NOTES: Plasma pharmacokinetics of Example 68 after IV infusion or PO dose in SD rats
- Type: in vivo
- ASSAY_CONTEXT: Sprague-Dawley (SD), rat, plasma, po, 5 mg/kg, PO dose 5 mg/kg, individual rats
ATTRIBUTE_MEASURED: AUC(0-t) (µM·h)
Your answer should be a plain number; it is taken to be in µM·h.

Lab note: NC(=O)c1ccc(-c2ccc(-c3nn[nH]c3C(=O)O)cc2)cc1 gave AUC(0-t) of 0.429

###

- METHOD_NOTES: Plasma pharmacokinetics of Example 68 after IV infusion or PO dose in SD rats
- Format: in vivo
- ASSAY_CONTEXT: Sprague-Dawley (SD), rat, plasma, iv, 1 mg/kg, 30-minute IV infusion 1 mg/kg, mean n=3, read-out: t1/2 (terminal) (converted)
ATTRIBUTE_MEASURED: half-life (h)
// return numeric value only (unit: h, not printed)

For NC(=O)c1ccc(-c2ccc(-c3nn[nH]c3C(=O)O)cc2)cc1 the compound record lists half-life as 1.02

###

- METHOD_NOTES: Plasma pharmacokinetics after an oral dose of Example 2 in SD rats
- Assay type: in vivo, Sprague Dawley rats
- ASSAY_CONTEXT: male, Sprague Dawley, rat, plasma, po, 5 mg/kg, Example 68 in plasma, PO dose of Example 2 5 mg/kg, individual rats
ATTRIBUTE_MEASURED: Cmax (nM)
Just the number in nM, nothing appended.

The reported value for NC(=O)c1ccc(-c2ccc(-c3nn[nH]c3C(=O)O)cc2)cc1 in terms of Cmax is 2120

###

- METHOD_NOTES: Plasma pharmacokinetics after an oral dose of Example 2 in SD rats
- Format: in vivo, Sprague Dawley rats
- ASSAY_CONTEXT: male, Sprague Dawley, rat, plasma, oral, 5 mg/kg, Example 68 after PO Example 2 5 mg/kg, based on IV exposure of Example 68 at 1.0 mg/kg, individual rats, read-out: F (bioavailability)
ATTRIBUTE_MEASURED: bioavailability (%)
Numbers only; they are read as %.

Lookup result for NC(=O)c1ccc(-c2ccc(-c3nn[nH]c3C(=O)O)cc2)cc1 ; measured bioavailability: 19.4

###

- METHOD_NOTES: Plasma pharmacokinetics of Example 68 after IV infusion or PO dose in SD rats
- Type: in vivo
- ASSAY_CONTEXT: Sprague-Dawley (SD), rat, plasma, iv, 1 mg/kg, 30-minute IV infusion 1 mg/kg, individual rats, read-out: t1/2 (terminal) (converted)
ATTRIBUTE_MEASURED: half-life (h)
Value expressed in h; do not type the unit.

response.value for NC(=O)c1ccc(-c2ccc(-c3nn[nH]c3C(=O)O)cc2)cc1 (field: half-life) = 1.01

###

- METHOD_NOTES: Plasma pharmacokinetics after an oral dose of Example 2 in SD rats
- Assay type: in vivo, Sprague Dawley rats
- ASSAY_CONTEXT: male, Sprague Dawley, rat, plasma, po, 5 mg/kg, Example 2 in plasma, PO Example 2 5 mg/kg, mean n=3
ATTRIBUTE_MEASURED: AUC(0-inf) (µM·h)
Enter your answer as a number in µM·h; do not include the unit.

# AUC(0-inf) of CCOC(=O)c1[nH]nnc1-c1ccc(-c2ccc(C(N)=O)cc2)cc1 = 1.6
